- testedTarget: Phosphatidylinositol 4,5-bisphosphate 3-kinase catalytic subunit gamma isoform (Homo sapiens, UniProt P48736)
- Sequence (P48736 whole entry, canonical isoform): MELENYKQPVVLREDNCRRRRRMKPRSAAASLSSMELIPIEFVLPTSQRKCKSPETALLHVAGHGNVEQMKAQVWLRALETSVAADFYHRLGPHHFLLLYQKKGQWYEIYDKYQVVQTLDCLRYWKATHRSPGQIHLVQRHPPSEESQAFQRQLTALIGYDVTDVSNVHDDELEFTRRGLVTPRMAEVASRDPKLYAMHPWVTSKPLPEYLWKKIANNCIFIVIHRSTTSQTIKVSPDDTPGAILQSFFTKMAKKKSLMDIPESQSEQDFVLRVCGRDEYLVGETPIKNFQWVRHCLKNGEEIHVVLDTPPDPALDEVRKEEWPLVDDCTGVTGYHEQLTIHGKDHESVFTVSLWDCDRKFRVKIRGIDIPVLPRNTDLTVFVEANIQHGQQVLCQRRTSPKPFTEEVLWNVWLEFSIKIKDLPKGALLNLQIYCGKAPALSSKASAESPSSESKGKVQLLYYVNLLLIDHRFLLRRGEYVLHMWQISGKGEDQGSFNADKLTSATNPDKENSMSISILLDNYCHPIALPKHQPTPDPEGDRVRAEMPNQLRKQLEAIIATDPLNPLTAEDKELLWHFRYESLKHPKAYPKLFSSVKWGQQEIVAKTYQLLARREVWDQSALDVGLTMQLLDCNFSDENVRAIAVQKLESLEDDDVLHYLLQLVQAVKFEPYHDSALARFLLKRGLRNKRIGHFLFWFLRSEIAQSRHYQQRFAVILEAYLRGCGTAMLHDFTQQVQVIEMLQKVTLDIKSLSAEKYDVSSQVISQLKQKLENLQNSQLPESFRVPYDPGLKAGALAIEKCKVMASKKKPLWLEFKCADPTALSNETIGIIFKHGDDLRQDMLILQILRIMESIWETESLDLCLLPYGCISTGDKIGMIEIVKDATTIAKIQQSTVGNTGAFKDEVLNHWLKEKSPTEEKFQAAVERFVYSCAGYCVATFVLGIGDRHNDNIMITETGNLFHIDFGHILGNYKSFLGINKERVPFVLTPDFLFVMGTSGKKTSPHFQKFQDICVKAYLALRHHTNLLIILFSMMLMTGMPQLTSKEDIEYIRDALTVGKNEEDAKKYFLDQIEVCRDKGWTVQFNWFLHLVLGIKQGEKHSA
- protocol: Reversible competitive inhibition of PI3K p110gamma (unknown origin)
measurementKind: IC50 (nM)
Response body: numeric value in nM, unit text excluded.

// field: IC50; key: COc1ccc(Cl)c(Nc2nc3ccccc3nc2NS(=O)(=O)c2cccc(NC(=O)C(C)(C)N)c2)c1 ; value = 383
